testedSystem: T1, human glucagon receptor (human, UniProt P47871 26-477)
T1 construct: whole, on cells; cAMP assay: transfected HEK293 cells
T1 sequence (P47871 26-477): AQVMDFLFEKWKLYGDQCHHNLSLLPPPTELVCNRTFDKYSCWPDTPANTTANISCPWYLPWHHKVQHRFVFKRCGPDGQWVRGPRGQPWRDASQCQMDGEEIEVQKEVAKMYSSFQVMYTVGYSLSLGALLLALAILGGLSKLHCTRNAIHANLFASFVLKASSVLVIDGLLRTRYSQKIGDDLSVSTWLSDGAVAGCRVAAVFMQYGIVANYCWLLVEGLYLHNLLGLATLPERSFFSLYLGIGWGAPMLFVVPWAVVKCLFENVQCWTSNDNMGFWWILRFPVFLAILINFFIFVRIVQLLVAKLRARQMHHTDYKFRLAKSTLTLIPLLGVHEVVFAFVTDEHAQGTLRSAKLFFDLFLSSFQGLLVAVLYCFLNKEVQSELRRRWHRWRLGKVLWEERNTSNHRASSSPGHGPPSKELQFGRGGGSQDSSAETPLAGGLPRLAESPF
runDescription: SPA competition vs 125I-glucagon, receptor membranes
Square brackets hold non-standard residues; d marks the D form. Ends that are not written are not given here. PhLac = O=C(O)[C@@H](O)Cc1ccccc1
measuredParameter: IC50 (nM)
Answer format: numeric, nM implied, no suffix.

IN: Please give the documented IC50 of [PhLac]TSEYSKYLDSRRAQDFVQWLMNT-NH2 (also called [PLA6, E9]; G(6-29); [PLA6, E9]Glucagon(6-29)) [[PLA^6, E^9]Glucagon(aa6-29)-NH2]
OUT: 12.3
